- ASSAY TEXT: Excitation and fluorescence emission wavelength measured with fluorescence spectrophotometer
- Assay type: physicochemical
- TEST SETTINGS: aqueous solution, 10 mg/mL DMSO solution diluted 500-fold with purified water
REPORTED ENDPOINT: Excitation wavelength λex (nm)
Numeric only. Scale: nm

Q: So what's the measured Excitation wavelength λex for this one? COc1ccc2cc(N3c4ccc(/C=C/c5sc6ccccc6[n+]5CC(=O)O)cc4C4CCCC43)ccc2c1 (stereo not shown)
A: 401

Q: Fill blank: measured Excitation wavelength λex of the compound "CCC[N+](CCC)=c1ccc2c(-c3ccccc3S(=O)(=O)O)c3ccc(Nc4c(C)cccc4C)cc3oc-2c1.[Na+]" is ____.
A: 509

Q: What measured Excitation wavelength λex goes with "CCC(=C\c1oc2ccc(-c3ccccc3)cc2[n+]1CC)/C=C1/Oc2ccc(-c3ccccc3)cc2N1CC" ?
A: 459

Q: I am curious: what Excitation wavelength λex value has been reported for CC[n+]1ccccc1C=Cc1ccc(N(C)C)cc1.[I-] [DASPEI, reference compound] ?
A: 461

Q: Which Excitation wavelength λex is reported for this compound? O=C(O)C[n+]1c(/C=C/c2ccc3c(c2)C2CCCC2N3c2ccccc2)sc2ccccc21 (stereo not shown)
A: 545

Q: State the recorded Excitation wavelength λex for this entry: "CCN1/C(=C/C=C/C=C/C=C/C2=[N+](CC)c3ccccc3C23CCCCC3)C2(CCCCC2)c2ccccc21"
A: 750

Q: What value of measured Excitation wavelength λex is listed for "O=S(=O)(O)CCN1/C(=C\C=C\c2oc3ccc(-c4ccccc4)cc3[n+]2CCS(=O)(=O)O)Oc2ccc(-c3ccccc3)cc21" ?
A: 470

====

Could you please report measured Fluorescence emission wavelength λem for the items listed next?
- ASSAY TEXT: Excitation and fluorescence emission wavelength measured with fluorescence spectrophotometer
- Format: physicochemical
- TEST SETTINGS: aqueous solution, 10 mg/mL DMSO solution diluted 500-fold with purified water
Quick note: give the figure in nm, leave out the unit.

Q: Bench note: what Fluorescence emission wavelength λem did CC1(C)C(/C=C/c2ccc3c(c2)C2CCCC2N3c2ccc(C=C(c3ccccc3)c3ccccc3)cc2)=[N+](CCC(=O)O)c2ccccc21 (stereo not drawn) show?
A: 720

Q: Tell me the measured Fluorescence emission wavelength λem of "CN1\C(=C/C=C/C=C/C2=[N+](C)c3ccc4ccccc4c3C2(C)C)C(C)(C)c2c1ccc1ccccc21" , please.
A: 700

Q: Can you look up the measured Fluorescence emission wavelength λem of "CCN1C=C/C(=C\C=c2\s/c(=C/c3sc4ccccc4[n+]3CC)n(CC)c2=O)c2ccccc21" for me?
A: 690
